# study system: UniProtKB P23443
# Sequence (P23443 whole entry, looked up): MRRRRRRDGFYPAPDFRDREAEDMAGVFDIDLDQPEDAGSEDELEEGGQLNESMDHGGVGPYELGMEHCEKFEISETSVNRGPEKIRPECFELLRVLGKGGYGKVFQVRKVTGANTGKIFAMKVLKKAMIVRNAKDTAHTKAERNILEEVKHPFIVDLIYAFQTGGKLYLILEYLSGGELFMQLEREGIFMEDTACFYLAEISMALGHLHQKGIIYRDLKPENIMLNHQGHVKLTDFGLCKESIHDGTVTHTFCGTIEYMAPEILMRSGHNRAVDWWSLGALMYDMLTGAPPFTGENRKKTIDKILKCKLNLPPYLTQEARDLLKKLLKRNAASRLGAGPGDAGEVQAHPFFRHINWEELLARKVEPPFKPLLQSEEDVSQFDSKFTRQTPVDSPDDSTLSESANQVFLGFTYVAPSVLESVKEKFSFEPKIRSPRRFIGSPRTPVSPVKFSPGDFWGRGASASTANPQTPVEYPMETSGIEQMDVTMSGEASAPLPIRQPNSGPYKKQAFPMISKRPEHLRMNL
# protocol notes: inhibition of human S6K1 enzyme activity – biochemical, LANCE Ultra TR-FRET (AID 1117328)
# run conditions: LANCE Ultra TR-FRET kinase assay, p70S6K1; at 20 µM (top of the series)
The source made the active and inactive calls. How the calls were made is not given here.
Result category, one only: 1 (active), -1 (inactive)

Here's what some known entries look like.
COC(=O)Nc1nc2ccc(Sc3ccccc3)cc2[nH]1: -1
Cc1cc(O)c2ccccc2c1O: -1
COC(=O)Nc1nc2ccc(C(=O)C3CC3)cc2[nH]1: -1
Cn1cnc([N+](=O)[O-])c1Sc1ncnc2nc[nH]c12: -1
CCN(CC)CCNC(=O)c1c(C)[nH]c(/C=C2\C(=O)Nc3ccc(F)cc32)c1C: 1
COCc1c(C(C)C)nc(C(C)C)c(/C=C/[C@@H](O)C[C@@H](O)CC(=O)O)c1-c1ccc(F)cc1: -1
CC(C)(C)C1CCC(CC2=C(O)c3ccccc3C(=O)C2=O)CC1 (stereo not drawn): -1
CC(C)C[C@H](NC(=O)[C@H](CCc1ccccc1)NC(=O)CN1CCOCC1)C(=O)N[C@@H](Cc1ccccc1)C(=O)N[C@@H](CC(C)C)C(=O)[C@@]1(C)CO1: -1

Problem: Called result for `CNC(=O)c1ccccc1Sc1ccc2c(/C=C/c3ccccn3)n[nH]c2c1`
Solution: -1

Problem: What did this assay record as the result for COc1ccc(-c2nc3ccc(C4=NNC(=O)CC4C)cc3[nH]2)cc1 (stereo not drawn) ?
Solution: -1
